Could you please report measured inhibition for the items listed next?
tgt: Protein deacetylase HDAC6 (Homo sapiens)
test-context: at 10 µM
Sequence (Q9UBN7 whole entry): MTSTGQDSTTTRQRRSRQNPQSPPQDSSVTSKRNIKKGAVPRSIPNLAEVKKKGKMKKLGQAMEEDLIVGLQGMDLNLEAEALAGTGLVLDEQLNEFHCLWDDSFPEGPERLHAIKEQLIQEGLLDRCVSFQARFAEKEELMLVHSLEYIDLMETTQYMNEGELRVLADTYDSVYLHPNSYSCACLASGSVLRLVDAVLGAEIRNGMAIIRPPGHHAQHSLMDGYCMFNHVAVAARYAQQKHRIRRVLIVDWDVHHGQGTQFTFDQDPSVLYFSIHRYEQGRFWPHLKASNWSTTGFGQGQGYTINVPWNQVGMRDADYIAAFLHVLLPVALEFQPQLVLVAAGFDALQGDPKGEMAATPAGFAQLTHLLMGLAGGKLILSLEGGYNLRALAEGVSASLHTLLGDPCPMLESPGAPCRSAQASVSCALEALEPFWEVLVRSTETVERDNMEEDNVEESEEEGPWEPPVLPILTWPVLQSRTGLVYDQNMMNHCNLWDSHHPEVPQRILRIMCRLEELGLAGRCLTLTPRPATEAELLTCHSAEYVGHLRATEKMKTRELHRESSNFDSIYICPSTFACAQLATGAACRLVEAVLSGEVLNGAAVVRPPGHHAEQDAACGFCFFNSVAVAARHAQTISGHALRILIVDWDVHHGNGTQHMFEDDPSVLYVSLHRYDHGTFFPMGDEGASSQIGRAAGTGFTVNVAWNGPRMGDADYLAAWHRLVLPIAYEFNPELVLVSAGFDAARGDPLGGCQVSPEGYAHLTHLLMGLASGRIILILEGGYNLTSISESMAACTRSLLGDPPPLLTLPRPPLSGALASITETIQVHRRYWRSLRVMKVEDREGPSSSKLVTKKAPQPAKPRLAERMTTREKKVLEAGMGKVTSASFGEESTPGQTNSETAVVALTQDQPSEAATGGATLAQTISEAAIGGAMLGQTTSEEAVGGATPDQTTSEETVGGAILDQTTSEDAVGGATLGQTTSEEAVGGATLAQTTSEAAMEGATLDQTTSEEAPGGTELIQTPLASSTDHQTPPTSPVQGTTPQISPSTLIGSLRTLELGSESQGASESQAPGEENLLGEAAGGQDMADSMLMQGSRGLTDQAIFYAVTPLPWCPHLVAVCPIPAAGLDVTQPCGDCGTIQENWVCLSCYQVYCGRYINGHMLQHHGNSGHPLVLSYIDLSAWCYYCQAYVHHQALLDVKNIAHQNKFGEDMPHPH
Among all 5,600 compounds or so, about 150 (2.7%) showed an effect of 50% or more. The sample holds strong results, similar compounds and a random draw of the others, so the mix is not that of the screen.
Report the value in % with no unit label.

Suppose we examine the substance SEVELAMER HYDROCHLORIDE, CHEMBL1201492 ; what inhibition value has been reported? -4.03

Can you share its inhibition? I mean this substance: Miriplatin, CHEMBL4303713 -1.16

If you can, please state the reported inhibition value of PHENYLMERCURIC ACETATE, CHEMBL1333953 . 62

Which inhibition reading was recorded for the substance GADOTERIDOL, CHEMBL1200593 ? -0.37

Need inhibition, item GADOBUTROL, CHEMBL2218860 27.5

###

Provide the reported inhibition of each item.
tgt: Protein deacetylase HDAC6 (Homo sapiens) (UniProt Q9UBN7)
test-context: at 10 µM
About 150 (2.7%) of roughly 5,600 compounds showed an effect of 50% or more. Many of the other results were omitted from the sample, so strong results are more common in it than they were. Non-standard residues stand in square brackets, D forms with d. Residues, ends and D or L forms follow the SMILES beside them. NMeF = CN[C@@H](Cc1ccccc1)C(=O)O
All answers are understood in %, so give the number only.

API: value(readout= inhibition, system= Protein deacetylase HDAC6 (Homo sapiens) (UniProt Q9UBN7), query= `CC(C)(O)CC(=O)O` ) 1.27

Give recorded inhibition with Protein deacetylase HDAC6 (Homo sapiens) (UniProt Q9UBN7) for the following molecule: CSCC[C@H](NC(=O)[C@H](CC(C)C)NC(=O)[C@@H](Cc1c[nH]c2ccccc12)NC(=O)[C@H](Cc1ccccc1)N(C)C(=O)[C@@H](Cc1c[nH]c2ccccc12)NC(=O)[C@@H](N)CCCNC(=N)N)C(N)=O (H-R[dW][NMeF][dW]LM-NH2) -6.35

Query inhibition on Protein deacetylase HDAC6 (Homo sapiens) (UniProt Q9UBN7) for `Cc1cn2nc([C@@H]3CCCCN3C(=O)c3cc(Cl)ccc3NS(C)(=O)=O)cc2nc1N1CC[C@H](N)C1` -2.52

Return inhibition measured with Protein deacetylase HDAC6 (Homo sapiens) (UniProt Q9UBN7) given this molecule: `c1cnc(NCc2ccc(CNc3ncccn3)cc2)nc1` 0.03

Request: inhibition, test system Protein deacetylase HDAC6 (Homo sapiens) (UniProt Q9UBN7), entry `N=C(Nc1ccccc1)c1cccs1` 14.8

Protein deacetylase HDAC6 (Homo sapiens) (UniProt Q9UBN7) / inhibition / `Cc1[nH]c(/C=C2\C(=O)Nc3ccc(F)cc32)c(C)c1C(=O)NCCN1CCCC1` : value? 2.96

Lab request: please report inhibition under test system Protein deacetylase HDAC6 (Homo sapiens) (UniProt Q9UBN7) for `O=C1NC(=S)NC(=O)C1C(=O)Nc1ccccc1` 95

Entry `O=C(Nc1ccccc1C(=O)Nc1ccc(CCO)cc1)c1ccc([N+](=O)[O-])cc1` , system Protein deacetylase HDAC6 (Homo sapiens) (UniProt Q9UBN7): what inhibition was measured? 19.2

Request - read-out inhibition | tested on Protein deacetylase HDAC6 (Homo sapiens) (UniProt Q9UBN7) | molecule `Cc1[nH]c(/C=C2\C(=O)Nc3cc(-c4ccccc4)ccc32)c(C)c1CCC(=O)O` 96.4

Kindly state the measured inhibition obtained for `CNc1nc(C)nc(N[C@H]2CCC[C@@H](C(=O)NCc3ccc(C#N)cc3C(F)(F)F)C2)n1` with Protein deacetylase HDAC6 (Homo sapiens) (UniProt Q9UBN7). -6.75

Observed inhibition on Protein deacetylase HDAC6 (Homo sapiens) (UniProt Q9UBN7) for `Cc1cc(/C=c2/sc3nc4ccccc4n3c2=O)c(C)n1-c1ccccc1` , please. -1.28

For the record `CC(C)(S)C(=O)N[C@@H](CS)C(=O)O` , what value of inhibition is listed for Protein deacetylase HDAC6 (Homo sapiens) (UniProt Q9UBN7)? 6.63

Find inhibition (Protein deacetylase HDAC6 (Homo sapiens) (UniProt Q9UBN7)) for the entry `O=C1NN(C(=O)Nc2ccc(Br)cc2)[C@@H](c2ccccc2)[C@@H]1c1ccccc1` 13.1

Value wanted: inhibition (Protein deacetylase HDAC6 (Homo sapiens) (UniProt Q9UBN7)) of entry `C[N+](C)(C)[C@@H](Cc1c[nH]c(=S)[nH]1)C(=O)[O-]` 0.31

Which measured inhibition belongs to `COc1cc(OC)c(/C=C2/C(=O)Nc3ccccc32)c(OC)c1` , tested on Protein deacetylase HDAC6 (Homo sapiens) (UniProt Q9UBN7)? -2.63

Query inhibition on Protein deacetylase HDAC6 (Homo sapiens) (UniProt Q9UBN7) for `CC/C(=C(/CC)c1ccc(OP(=O)(O)O)cc1)c1ccc(OP(=O)(O)O)cc1` -0.19

Please provide the recorded inhibition for `COC(=O)c1cc(OC)c2c(c1-c1c(CO)cc(OC)c3c1OCO3)OCO2` , tested on Protein deacetylase HDAC6 (Homo sapiens) (UniProt Q9UBN7). -0.94

Hello, I am looking for reported inhibition with Protein deacetylase HDAC6 (Homo sapiens) (UniProt Q9UBN7) for `O=[Si]=O.O=[Si]=O.O=[Si]=O.O=[Si]=O.[O]=[Mg].[O]=[Mg].[O]=[Mg]` . Could you help? 97.2

Could you share what inhibition was measured for `CNC(=O)c1cccc2cc(Oc3ccnc4cc(OCC5(N)CC5)c(OC)cc34)ccc12` , tested on Protein deacetylase HDAC6 (Homo sapiens) (UniProt Q9UBN7)? 11.4

What value of inhibition on Protein deacetylase HDAC6 (Homo sapiens) (UniProt Q9UBN7) does `C[C@H](N/C(=N/C#N)Nc1cccc2ncccc12)c1ccccc1` have? -5.84
